- system_tested: human CYP11B1 (Homo sapiens)
- Construct: The expression plasmids contains the ORF for either human/cyno CYP11B1 or CYP11B2
- assay_notes: G-402 cellular enzyme assay, human CYP11B1 (cortisol release, HTRF)
- measurement_conditions: G-402 cells expressing human CYP11B1; 1 μM Deoxycortisol
recorded_endpoint: pEC50
Give bare numbers, as −log10 of the molar value.

These recorded examples may help you get a feel for the data.
compound	pEC50
CC1(C)c2cc(Cl)ccc2C(=O)N1c1cncc(C2CCN(S(=O)(=O)C3CC3)C2)c1 (single isomer, unassigned; (+)) [Example 12]	7.12
CC1(C)c2cc(Cl)ccc2C(=O)N1c1cncc(C2CCCN(S(C)(=O)=O)C2)c1 (single isomer, unassigned; (+)) [Example 5]	6.67
CC1(C)c2cc(Cl)ccc2C(=O)N1c1cncc(C2CCCN(S(C)(=O)=O)C2)c1 (single isomer, unassigned; (-)) [Example 6]	6.48

Your task in this section: give pEC50 for each listed record.
1. CC1(C)c2cc(Cl)ccc2C(=O)N1c1cncc(C2CCN(C(=O)c3ncccc3Cl)CC2)c1 [Example 20]
2. CCCS(=O)(=O)N1CCC(c2cncc(N3C(=O)c4ccc(Cl)cc4C3(C)C)c2)C1 (single isomer, unassigned; (+)) [Example 8]
3. CC(C)S(=O)(=O)N1CCC(c2cncc(N3C(=O)c4ccc(Cl)cc4C3(C)C)c2)C1 (single isomer, unassigned; (+)) [Example 10]

Data returned:
[6.31, 6.96, 7.03]

###

Assign pEC50 to each entry below.
- system_tested: human CYP11B1 (Homo sapiens, UniProt P15538)
- Construct: The expression plasmids contains the ORF for either human/cyno CYP11B1 or CYP11B2
- Sequence (P15538 25-503): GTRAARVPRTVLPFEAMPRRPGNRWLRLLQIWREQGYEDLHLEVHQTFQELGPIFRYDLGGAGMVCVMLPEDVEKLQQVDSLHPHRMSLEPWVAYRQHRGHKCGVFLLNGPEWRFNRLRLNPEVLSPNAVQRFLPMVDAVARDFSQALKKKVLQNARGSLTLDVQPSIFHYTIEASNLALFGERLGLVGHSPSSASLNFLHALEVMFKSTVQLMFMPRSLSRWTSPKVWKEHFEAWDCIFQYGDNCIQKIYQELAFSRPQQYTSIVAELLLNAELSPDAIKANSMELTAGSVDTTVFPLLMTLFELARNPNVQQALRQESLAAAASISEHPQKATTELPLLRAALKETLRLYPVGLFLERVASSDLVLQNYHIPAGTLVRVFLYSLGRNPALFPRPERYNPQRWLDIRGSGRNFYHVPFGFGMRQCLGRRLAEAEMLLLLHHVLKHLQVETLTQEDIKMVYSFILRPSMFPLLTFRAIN
- assay_notes: G-402 cellular enzyme assay, human CYP11B1 (cortisol release, HTRF)
- measurement_conditions: G-402 cells expressing human CYP11B1; 1 μM Deoxycortisol
Numbers only, as −log10 of the molar value.

compound	readout_value
CC1(C)c2cc(Cl)ccc2C(=O)N1c1cncc(C2CN(S(=O)(=O)C3CC3)C2)c1	6.49
COc1ccc2c(n1)C(C)(C)N(c1cncc(C3(F)CCN(C(=O)c4nccn4C)CC3)c1)C2=O	8.10
CC(C)S(=O)(=O)N1CCC(F)(c2cncc(N3C(=O)c4ccc(Cl)cc4C3(C)C)c2)C1 (stereo not drawn)	6.63
Cc1ccncc1C(=O)N1CCC(c2cncc(N3C(=O)c4ccc(Cl)cc4C3(C)C)c2)CC1	6.66
COc1ccc2c(n1)C(C)(C)N(c1cncc(C3CCN(C(=O)c4cnccc4C)CC3)c1)C2=O	5.88
CCCS(=O)(=O)N1CCC(F)(c2cncc(N3C(=O)c4ccc(OC)nc4C3(C)C)c2)CC1	5.72
CCS(=O)(=O)N1CCCC(c2cncc(N3C(=O)c4ccc(Cl)cc4C3(C)C)c2)C1 (stereo not drawn)	6.22
CC1(C)c2cc(Cl)ccc2C(=O)N1c1cncc(C2CCN(S(=O)(=O)C3CC3)CC2)c1	6.00
CCS(=O)(=O)N1CCC(c2cncc(N3C(=O)c4ccc(Cl)cc4[C@H]3C)c2)CC1 (single isomer, unassigned)	6.36
CC(C)S(=O)(=O)N1CCC(F)(c2cncc(N3C(=O)c4ccc(C#N)cc4C3(C)C)c2)CC1	5.73

Give me pEC50 for each of these compounds, listed below.
1. CCC(=O)N1CCC(c2cncc(N3C(=O)c4ccc(Cl)cc4C3(C)C)c2)CC1
2. Cc1ccncc1C(=O)N1CCC(c2cncc(N3Cc4cc(Cl)ccc4C3=O)c2)CC1
3. CCS(=O)(=O)N1CCC(F)(c2cncc(N3C(=O)c4ccc(OC)nc4C3(C)C)c2)CC1
4. CC(C)S(=O)(=O)N1CCC(c2cncc(N3C(=O)c4ccc(Cl)cc4[C@H]3C)c2)CC1 (single isomer, unassigned)

Data returned:
[6.62, 6.02, 5.62, 5.79]

The observed pEC50 for COc1ccc2c(n1)C(C)(C)N(c1cncc(C3(F)CCN(S(=O)(=O)C4CC4)CC3)c1)C2=O when tested with human CYP11B1 (Homo sapiens, UniProt P15538) stands at 5.90
